Molecular target: T1, 4H3354-bA
T1 chain: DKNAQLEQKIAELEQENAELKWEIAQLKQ
Assay: two-hybrid library CCNG1;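 note: natural log of median RNA to DNA barcode read ratio; higher means stronger binding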
OBSERVED_PROPERTY: interaction score

1. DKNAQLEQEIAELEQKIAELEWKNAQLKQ [4H3112-bA] ... 0.000615
2. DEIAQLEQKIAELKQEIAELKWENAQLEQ [4H331-bA] ... -0.749
3. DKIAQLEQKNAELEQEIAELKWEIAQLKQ [4H2442-bA] ... -0.829
4. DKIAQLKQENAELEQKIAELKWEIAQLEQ [4H2729-bA] ... -0.919
5. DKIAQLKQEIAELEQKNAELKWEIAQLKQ [4H2618-bA] ... 1.21
6. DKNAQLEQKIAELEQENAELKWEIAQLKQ [4H3354-bA] ... 1.66
